Would you kindly list Ki for each of these compounds?
Biological target: serotonin-S2-receptor (Rattus norvegicus, UniProt P14842)
Construct: membrane preparations of cerebral cortex of the rat; from tissue; host or cells: rat cerebral cortex, membrane preparation
Sequence (P14842 whole entry): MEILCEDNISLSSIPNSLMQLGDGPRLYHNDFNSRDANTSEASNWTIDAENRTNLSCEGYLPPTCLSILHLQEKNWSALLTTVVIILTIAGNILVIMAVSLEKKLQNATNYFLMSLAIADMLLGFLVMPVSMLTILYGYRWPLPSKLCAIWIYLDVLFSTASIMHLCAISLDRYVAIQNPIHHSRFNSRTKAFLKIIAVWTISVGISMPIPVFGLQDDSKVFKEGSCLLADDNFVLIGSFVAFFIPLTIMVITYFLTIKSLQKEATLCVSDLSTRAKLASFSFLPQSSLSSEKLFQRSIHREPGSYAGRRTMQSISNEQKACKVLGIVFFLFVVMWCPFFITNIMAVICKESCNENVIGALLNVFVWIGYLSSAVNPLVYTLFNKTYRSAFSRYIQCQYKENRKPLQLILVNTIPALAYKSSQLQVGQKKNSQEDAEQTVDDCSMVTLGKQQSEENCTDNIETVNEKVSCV
Assay: Bond to the serotonin-S2-receptor: displacement of the specific ^3H-ketanserine bond in membrane preparations of cerebral cortex of the rat
Type: binding
Details: rat cerebral cortex membranes; 1 nM ^3H-ketanserine; 60 minutes, room temperature; 10^-10 to 10^-6 M test substance
Method: (b) Bond to the serotonin-S2 -receptor Displacement of the specific ^3 H-ketanserine bond in membrane preparations of cerebral cortex of the rat […] The competition constants (Ki values in nM) were calculated by nonlinear regression analysis on an IBM computer using the program Ligand from Munson and Rodbard (Analytical Biochemistry 107 (1980), 220).
Structures can show the parent of a compound that is named as a salt.
Phrase the answer as number then unit, nothing more needed.

Field: Ki (serotonin-S2-receptor (Rattus norvegicus, UniProt P14842)). Entry: COc1cccc(C(C#N)(CCCN(C)CCC2CCCCC2)C(C)C)c1 (stereo not drawn) [Example 1]
5 nM

Now give it for COc1ccc(C(C#N)(CCCN(C)CCC2CCCCC2)C(C)C)c([N+](=O)[O-])c1OC (stereo not drawn) [Example 16] too.
3.6 nM

Now give it for COc1ccc(CCN(C)CCCC(C#N)(c2ccc(OC)c(OC)c2)C(C)C)cc1OC (stereo not drawn) [Verapamil, verapamil, reference compound] too.
177 nM

Now give it for CCCCCCCCN(C)CCC[C@@](C#N)(c1cc(OC)c(OC)c(OC)c1)C(C)C [Example 6] too.
11.2 nM

Now give it for CCCCCCN(C)CCCC(C#N)(c1cc(OC)c(OC)c(OC)c1)C(C)C (stereo not drawn) [Example 23, hydrochloride] too.
48.4 nM

Now give it for CCCCC=CCCN(C)CCCC(C#N)(c1cc(OC)c(OC)c(OC)c1)C(C)C (stereo not drawn) [Example 15, hydrochloride] too.
6.8 nM
